# CONDITION LABEL: in n-butanol, 318.15 K
PROPERTY NAME: solubility (mole fraction)
A bare number is all that is needed in reply.

Fill in: solubility (mole fraction) of C[C@H]1[C@H](C)CC[C@]2(C(=O)O[C@@H]3O[C@H](CO[C@@H]4O[C@H](CO)[C@@H](O[C@@H]5O[C@@H](C)[C@H](O)[C@@H](O)[C@H]5O)[C@H](O)[C@H]4O)[C@@H](O)[C@H](O)[C@H]3O)CC[C@]3(C)C(=CC[C@@H]4[C@@]5(C)C[C@@H](O)[C@H](O)[C@@](C)(CO)[C@@H]5CC[C@]43C)[C@H]12 is ___
5.1e-05
